// data source = patent US20250275953A1

Experiment: Plasma pharmacokinetics, 7 once-daily oral doses, healthy volunteers
Format: in vivo, human
Conditions: male, human, plasma, oral, 192 mg, Day 1, plasma, healthy volunteers; read-out: Tmax Min, Max
PROPERTY: Tmax

Exercise: I'd like to know its Tmax. The molecule in question is `Cc1ccc(C(=O)NNC(=O)c2c(C)cccc2Cl)cc1C#Cc1cnc2ccccc2c1`
Solution: 1.62 to 4 h

---

Assay: Plasma pharmacokinetics, 7 once-daily oral doses, healthy volunteers
Assay type: in vivo, human
Conditions: male, human, plasma, oral, 384 mg, Day 7, plasma, healthy volunteers; read-out: AUC0-24 AM
PROPERTY: AUC(0-t) (µg·h/mL)
Answer in µg·h/mL, number only, no unit symbol.

Exercise: Item `Cc1ccc(C(=O)NNC(=O)c2c(C)cccc2Cl)cc1C#Cc1cnc2ccccc2c1` has what recorded AUC(0-t)?
Solution: 54.9

---

Assay: Plasma pharmacokinetics, Parkinson's disease patients, once daily for 14 days
Type: in vivo, human
Details: human, oral, 384 mg, Day 1, plasma, PD patients
PROPERTY: Cmax

Exercise: Please give the measured Cmax for this compound: `Cc1ccc(C(=O)NNC(=O)c2c(C)cccc2Cl)cc1C#Cc1cnc2ccccc2c1`
Solution: 3020 ng/mL

---

Test: Plasma pharmacokinetics, 7 once-daily oral doses, healthy volunteers
Type: in vivo, human
Conditions: male, human, plasma, oral, 192 mg, Day 1, plasma, healthy volunteers; read-out: AUC0-24 AM
PROPERTY: AUC(0-t) (ng·h/mL)
Your answer should be a plain number; it is taken to be in ng·h/mL.

Exercise: Endpoint output: AUC(0-t) of `Cc1ccc(C(=O)NNC(=O)c2c(C)cccc2Cl)cc1C#Cc1cnc2ccccc2c1` . Value?
Solution: 34500

---

Test: Plasma pharmacokinetics, Parkinson's disease patients, once daily for 14 days
Type: in vivo, human
Conditions: human, oral, 18 mg, Day 1, plasma, PD patients
PROPERTY: Cmax

Exercise: Look at this molecule and give its reported Cmax. `Cc1ccc(C(=O)NNC(=O)c2c(C)cccc2Cl)cc1C#Cc1cnc2ccccc2c1`
Solution: 410 ng/mL

---

Assay: Plasma pharmacokinetics, 7 once-daily oral doses, healthy volunteers
Type: in vivo, human
Details: male, human, plasma, oral, 48 mg, Day 7, plasma, healthy volunteers; read-out: Cmax Min, Max
PROPERTY: Cmax

Exercise: I am curious: what Cmax value has been reported for `Cc1ccc(C(=O)NNC(=O)c2c(C)cccc2Cl)cc1C#Cc1cnc2ccccc2c1` ?
Solution: 421 to 2380 ng/mL

---

Assay: Plasma pharmacokinetics, Parkinson's disease patients, once daily for 14 days
Type: in vivo, human
Conditions: human, oral, 96 mg, Day 1, plasma, PD patients, read-out: AUC0-24 Mean
PROPERTY: AUC(0-t)

Exercise: Could you tell me which AUC(0-t) is on file for `Cc1ccc(C(=O)NNC(=O)c2c(C)cccc2Cl)cc1C#Cc1cnc2ccccc2c1` ?
Solution: 10200 ng·h/mL

---

Experiment: Plasma pharmacokinetics, 7 once-daily oral doses, healthy volunteers
Type: in vivo, human
Conditions: male, human, plasma, oral, 48 mg, Day 7, plasma, healthy volunteers; read-out: AUC0-24 GM
Procedure: After 28 days of screening, the subjects were studied in sequential cohorts of 6 subjects each. The study was conducted for 17 days. […] After the dose, subjects continued to fast for additional 4 hours, water was allowed ad libitum with the exception of 1 hour prior and 1-hour post dose. The plasma and CSF samples were analyzed, by validated LC/MS-MS methods. […]
PROPERTY: AUC(0-t) (ng·h/mL)
Report only the number, with the unit ng·h/mL understood.

Exercise: Return reported AUC(0-t); argument: `Cc1ccc(C(=O)NNC(=O)c2c(C)cccc2Cl)cc1C#Cc1cnc2ccccc2c1`
Solution: 10300

---

Test: Plasma pharmacokinetics, Parkinson's disease patients, once daily for 14 days
Assay type: in vivo, human
Conditions: human, oral, 12 mg, Day 1, plasma, PD patients, read-out: Tmax median
PROPERTY: Tmax (h)
State the answer as a number, implicitly in h.

Exercise: Consider the compound `Cc1ccc(C(=O)NNC(=O)c2c(C)cccc2Cl)cc1C#Cc1cnc2ccccc2c1` and give its measured Tmax.
Solution: 2

---

Assay: Plasma pharmacokinetics, 7 once-daily oral doses, healthy volunteers
Format: in vivo, human
Conditions: male, human, plasma, oral, 192 mg, Day 7, plasma, Healthy Subjects, Table 10; read-out: Tmax median (range)
PROPERTY: Tmax (h)
Numeric answer only, unit h assumed.

Exercise: Look up Tmax for this compound: `Cc1ccc(C(=O)NNC(=O)c2c(C)cccc2Cl)cc1C#Cc1cnc2ccccc2c1`
Solution: 4

---

Assay: Plasma pharmacokinetics, 7 once-daily oral doses, healthy volunteers
Type: in vivo, human
Conditions: male, human, plasma, oral, 192 mg, Day 7, plasma, healthy volunteers; read-out: Cmax Median
PROPERTY: Cmax
Lab note: write values as number then unit, every time.

Exercise: Please look up its Cmax: `Cc1ccc(C(=O)NNC(=O)c2c(C)cccc2Cl)cc1C#Cc1cnc2ccccc2c1`
Solution: 4690 ng/mL

---

Assay: Plasma pharmacokinetics, Parkinson's disease patients, once daily for 14 days
Format: in vivo, human
Conditions: human, oral, 384 mg, Day 1, plasma, PD patients, read-out: Tmax median
PROPERTY: Tmax (h)
Expressed in h, but write only the number.

Exercise: Entry `Cc1ccc(C(=O)NNC(=O)c2c(C)cccc2Cl)cc1C#Cc1cnc2ccccc2c1` has what Tmax?
Solution: 4.1

---

Assay: Plasma pharmacokinetics, Parkinson's disease patients, once daily for 14 days
Type: in vivo, human
Conditions: human, oral, 24 mg, Day 1, plasma, PD patients
PROPERTY: Cmax (ng/mL)
Respond numerically; units are ng/mL and should not be typed.

Exercise: Item `Cc1ccc(C(=O)NNC(=O)c2c(C)cccc2Cl)cc1C#Cc1cnc2ccccc2c1` has what recorded Cmax?
Solution: 385

---

Experiment: Plasma pharmacokinetics, Parkinson's disease patients, once daily for 14 days
Assay type: in vivo, human
Details: human, oral, 192 mg, Day 14, plasma, PD patients, read-out: Tmax median (range)
Method: Of these, 44 subjects completed the study. An additional 10 subjects were enrolled in the open label part of the study, of these, one subject was discontinued due to an AE of vomiting. […] Vodobatinib levels in plasma and CSF were determined using a fully validated LC-MS/MS assay with lower limits of quantitation (LLOQ) of 2.5 ng/mL and 0.05 ng/mL, respectively. […]
PROPERTY: Tmax
Express the reported value numerically, then name its unit.

Exercise: Fill in: Tmax of `Cc1ccc(C(=O)NNC(=O)c2c(C)cccc2Cl)cc1C#Cc1cnc2ccccc2c1` is ___
Solution: 1 h

---

Experiment: Plasma pharmacokinetics, 7 once-daily oral doses, healthy volunteers
Format: in vivo, human
Details: male, human, plasma, oral, 48 mg, Day 7, plasma, healthy volunteers; read-out: AUC0-24 AM
PROPERTY: AUC(0-t) (ng·h/mL)
Answer in ng·h/mL, number only, no unit symbol.

Exercise: Please look up its AUC(0-t): `Cc1ccc(C(=O)NNC(=O)c2c(C)cccc2Cl)cc1C#Cc1cnc2ccccc2c1`
Solution: 12900

---

Test: Plasma pharmacokinetics, Parkinson's disease patients, once daily for 14 days
Assay type: in vivo, human
Details: human, oral, 6 mg, Day 1, plasma, PD patients, read-out: AUC0-24 Mean
PROPERTY: AUC(0-t) (ng·h/mL)
Answer format: numeric, ng·h/mL implied, no suffix.

Exercise: // query AUC(0-t) value for entry `Cc1ccc(C(=O)NNC(=O)c2c(C)cccc2Cl)cc1C#Cc1cnc2ccccc2c1`
Solution: 794

---

Assay: Plasma pharmacokinetics, Parkinson's disease patients, once daily for 14 days
Format: in vivo, human
Conditions: human, 48 mg, PD patients, read-out: AUC Over Dosing Interval Median
PROPERTY: AUC (ng·h/mL)
Use ng·h/mL as the unit, but write only the number.

Exercise: Request the reported AUC associated with `Cc1ccc(C(=O)NNC(=O)c2c(C)cccc2Cl)cc1C#Cc1cnc2ccccc2c1`
Solution: 8670

---

Assay: Plasma pharmacokinetics, Parkinson's disease patients, once daily for 14 days
Assay type: in vivo, human
Details: human, 18 mg, PD patients, read-out: AUC Over Dosing Interval Mean
PROPERTY: AUC (ng·h/mL)
Write the answer as a number in ng·h/mL, unit excluded.

Exercise: Fill blank: measured AUC of the compound `Cc1ccc(C(=O)NNC(=O)c2c(C)cccc2Cl)cc1C#Cc1cnc2ccccc2c1` is ____.
Solution: 3370

---

Experiment: Plasma pharmacokinetics, Parkinson's disease patients, once daily for 14 days
Type: in vivo, human
Conditions: human, oral, 96 mg, Day 14, plasma, PD patients, read-out: Tmax median (range)
PROPERTY: Tmax (h)
The answer is to be given in h; state only the numeric part.

Exercise: Entry `Cc1ccc(C(=O)NNC(=O)c2c(C)cccc2Cl)cc1C#Cc1cnc2ccccc2c1` has what Tmax?
Solution: 2

---

Biological target: Abl (Q252H) (Homo sapiens, UniProt P00519, Q252H)
Experiment: Biochemical kinase assay, mutant Abl
PROPERTY: pIC50
# log scale: pIC50 equals minus log10 of the concentration in mol/L

Exercise: Please give the measured pIC50 for this molecule: `Cc1ccc(C(=O)NNC(=O)c2c(C)cccc2Cl)cc1C#Cc1cnc2ccccc2c1`
Solution: 9.10
